All values here come from the supplement of paper PMC12636033.

Here the recorded PBM 8-mer E-score is given for each entry.
# Test system: muMax20 (Max(13-93) K31hArg/K57hArg, M65Nle)
# Test protocol: PBM 8-mer E-score (E-score (rank enrichment, -0.5 to 0.5)); higher = stronger preferential binding
Whole data set: some 33,000 sequences, median “E-score (rank enrichment, -0.5 to 0.5)” near -0.0068, cut for the highest 2% near 0.24. For the sample, the highest values were picked, then their nearest neighbours and some sequences at random.
Reply with the value as a number alone.

Sequence text: CTTACTAC
PBM 8-mer E-score: 0.197
//
Sequence text: AGCTCGTG
PBM 8-mer E-score: 0.0196
//
Sequence text: AGCTTTGC
PBM 8-mer E-score: -0.066

Query: Which PBM 8-mer E-score is reported for this sequence? CCATAGAC
Reply: -0.0388

Query: PBM 8-mer E-score for ACCGGACT ?
Reply: -0.151

Query: Data request, read-out PBM 8-mer E-score, for ATTACTCC
Reply: 0.182

Query: Please give the measured PBM 8-mer E-score for this sequence: GACAACAA
Reply: 0.125

Query: What does the record list as PBM 8-mer E-score for GGGCTAAC ?
Reply: -0.0713

Query: Need PBM 8-mer E-score, item GCGTGCAA
Reply: 0.0854

###

# Test system: muMax20 (Max(13-93) K31hArg/K57hArg, M65Nle)
# Test protocol: PBM 8-mer E-score (E-score (rank enrichment, -0.5 to 0.5)); higher = stronger preferential binding
Over roughly 33,000 sequences, “E-score (rank enrichment, -0.5 to 0.5)” has its median near -0.0068; the highest 2% begin near 0.24. The sample holds the highest values, similar sequences and a random draw of the others, so the mix is not that of the screen.
Tag: True if measured PBM 8-mer E-score is not below 0.2, False if it is.

Sequence text: CCTACAAC
Class: False

Query: Threshold query (PBM 8-mer E-score >= 0.2) on AATGTTGT
Reply: True

Query: In plain terms: is recorded PBM 8-mer E-score at least 0.2 for GTTAAATA ?
Reply: True

Query: Confirm if PBM 8-mer E-score reported for the sequence GATGTTGA is 0.2 or above.
Reply: False

Query: Is reported PBM 8-mer E-score greater than or equal to 0.2 here: ACAACAAG
Reply: True

Query: Check this sequence for PBM 8-mer E-score at or above 0.2: ACCCAACC
Reply: False

Query: Say whether GAACGTGA shows PBM 8-mer E-score of 0.2 or more.
Reply: False

###

# Test system: muMax20 (Max(13-93) K31hArg/K57hArg, M65Nle)
# Test protocol: PBM 8-mer E-score (E-score (rank enrichment, -0.5 to 0.5)); higher = stronger preferential binding
The full ranking holds about 33,000 sequences; the median of “E-score (rank enrichment, -0.5 to 0.5)” is about -0.0068, and the highest 2% start at about 0.24. For the sample, the highest values were picked, then their nearest neighbours and some sequences at random.
Label rule, in plain words: PBM 8-mer E-score of 0.04 and up is label 1, under 0.04 is label 0.

Past entries and their recorded results:
Sequence text: GACGGATA
Class: label 0
//
Sequence text: CAGTGCAG
Class: label 0
//
Sequence text: CACCGCTG
Class: label 0

Query: Confirm if PBM 8-mer E-score reported for the sequence CCGCGACA is 0.04 or above.
Reply: label 0

Query: Please tell me: is the sequence AAATTGAC at or over 0.04 in terms of PBM 8-mer E-score?
Reply: label 0

Query: Dear colleague, could you confirm whether ATTCGTGC has PBM 8-mer E-score at or above 0.04?
Reply: label 1

###

As shown below, each of these sequences has a reported PBM 8-mer E-score value.
# Tested on: muMax20 (Max(13-93) K31hArg/K57hArg, M65Nle)
# Test protocol: PBM 8-mer E-score (E-score (rank enrichment, -0.5 to 0.5)); higher = stronger preferential binding
Whole data set: some 33,000 sequences, median “E-score (rank enrichment, -0.5 to 0.5)” near -0.0068, cut for the highest 2% near 0.24. This excerpt belongs to a sample that is enriched for the highest values.
Field format: numeric only.

Sequence text: ACTATTAT
PBM 8-mer E-score: 0.204

Query: Would you mind telling me what PBM 8-mer E-score value was observed for AACGTGTC ?
Reply: 0.145

Query: Entry TATGTTGA has what PBM 8-mer E-score?
Reply: 0.238

Query: Look up PBM 8-mer E-score: GCACGTGA
Reply: 0.392

Query: // returns reported PBM 8-mer E-score for input GTCTTAGA
Reply: -0.0878

Query: // returns reported PBM 8-mer E-score for input ACAACATC
Reply: 0.0572

Query: Consider the sequence CACCCCTC and give its measured PBM 8-mer E-score.
Reply: 0.11

Query: I am curious: what PBM 8-mer E-score value has been reported for TATACATA ?
Reply: 0.237

Query: Any idea what PBM 8-mer E-score was measured for CGTGGTAA ?
Reply: 0.215

###

# System: muMax20 (Max(13-93) K31hArg/K57hArg, M65Nle)
# Test protocol: PBM 8-mer E-score (E-score (rank enrichment, -0.5 to 0.5)); higher = stronger preferential binding
Over roughly 33,000 sequences, “E-score (rank enrichment, -0.5 to 0.5)” has its median near -0.0068; the highest 2% begin near 0.24. The list comes from a sample in which the highest values are over-represented; it also holds close analogues and randomly drawn sequences.
Each entry belongs to exactly one class, chosen by where its PBM 8-mer E-score falls: lower bin: < 0.03; middle bin: ≥ 0.03 and < 0.1; upper bin: ≥ 0.1

Sequence text: TGCCTGAA
Tested system: muMax20 (Max(13-93) K31hArg/K57hArg, M65Nle)
Class: lower bin

Query: Looking at TTAAATAA , which class would you pick?
Reply: upper bin

Query: GET /class?item= AATATGTG
Reply: upper bin

Query: Sort CATGCATG into one of the categories.
Reply: upper bin

Query: // return the class label for ACAAGCTG
Reply: lower bin

Query: Any idea which band AGCACTAG is in?
Reply: middle bin

Query: Could you place CATTAGTA in its proper category? Many thanks.
Reply: lower bin

Query: For GGTTAGTA , which PBM 8-mer E-score bin applies?
Reply: middle bin

Query: Looking at CGGTTCCA , which class would you pick?
Reply: lower bin

Query: Which category does the recorded PBM 8-mer E-score put AATGCATT in?
Reply: upper bin

###

# Tested on: muMax20 (Max(13-93) K31hArg/K57hArg, M65Nle)
# Test protocol: PBM 8-mer E-score (E-score (rank enrichment, -0.5 to 0.5)); higher = stronger preferential binding
The full ranking holds about 33,000 sequences; the median of “E-score (rank enrichment, -0.5 to 0.5)” is about -0.0068, and the highest 2% start at about 0.24. This excerpt belongs to a sample that is enriched for the highest values.
Listing: PBM 8-mer E-score of selected sequences
Lab note: record the figure alone, no unit after it.

// known answers, use as guide
Sequence text: GTGAGTGA
PBM 8-mer E-score: -0.073

Sequence text: CATACTTC
PBM 8-mer E-score: 0.181

Sequence text: GCACGTAC
PBM 8-mer E-score: -0.051

Sequence text: ACAACATG
PBM 8-mer E-score: 0.265

Sequence text: ACAACCAG
PBM 8-mer E-score: 0.062

Pending sequence:
Query: Identify the measured PBM 8-mer E-score of CCGAAAGG for muMax20 (Max(13-93) K31hArg/K57hArg, M65Nle).
Reply: -0.0656

###

# System: muMax20 (Max(13-93) K31hArg/K57hArg, M65Nle)
# Test protocol: PBM 8-mer E-score (E-score (rank enrichment, -0.5 to 0.5)); higher = stronger preferential binding
Over roughly 33,000 sequences, “E-score (rank enrichment, -0.5 to 0.5)” has its median near -0.0068; the highest 2% begin near 0.24. Only a selection was taken, and the highest values are over-represented in it overall.
Parameter class (string): assigned from measured PBM 8-mer E-score. Ranges: bottom end = under 0.03, midrange = from 0.03 up to 0.1, top end = 0.1 and over

Observe how each entry below is paired with its result.
Sequence text: AAAAATAT
Class: top end

Sequence text: CAATGATG
Class: bottom end

Next, consider the following sequence.
Query: Returns: class label. Input: CTTTTCAA
Reply: top end

###

# Test system: muMax20 (Max(13-93) K31hArg/K57hArg, M65Nle)
# Test protocol: PBM 8-mer E-score (E-score (rank enrichment, -0.5 to 0.5)); higher = stronger preferential binding
In all, about 33,000 sequences were measured (“E-score (rank enrichment, -0.5 to 0.5)”: median about -0.0068, highest 2% from about 0.24 on). This is one part of a sample in which the highest values are shown more often than they occur.
Assign label 1 to entries whose PBM 8-mer E-score meets or exceeds 0.07; assign label 0 to the rest.

Examples with answers:
Sequence text: CGAGTAAA
Class: label 0
//
Sequence text: GGGTCAAC
Class: label 0
//
Sequence text: AACGTGCG
Class: label 1
//
Sequence text: AATATGGT
Class: label 1
//
Sequence text: TCAATCCA
Class: label 1

Query: Exam item: decide whether the reported PBM 8-mer E-score for ATAAATAC is at least 0.07.
Reply: label 1

Query: Reported PBM 8-mer E-score reaches at least 0.07 for ACTAGAGG ?
Reply: label 1
